# Tested on: SK-MEL-28
# PROCEDURE_DETAILS: NCI tumour cell line growth inhibition, 48 h
The source made the active and inactive calls. No stated cut-off is given here; in the data, active = GI50 up to about 1.1 µM and inactive = higher.
Result category, one only: active, inactive

Previously resolved entries follow.
Query: What did this assay record as the result for C/C=C\C(CC(=O)NCCC1CN(C(=O)OCc2ccccc2)c2ccccc21)CC(=O)OC (configuration not stated) ?
Response: inactive

Query: # outcome recorded in this test, key = `Cc1ccc(S(=O)(=O)SCc2ccccc2CSS(=O)(=O)c2ccc(C)cc2)cc1`
Response: inactive

Query: Per the records of this test, what outcome belongs to Cc1cc2c(c(=O)o1)C1=S(SC(c3ccccc3)=C1)S2 (configuration not stated) ?
Response: inactive

Query: What is the recorded call for this compound in the test? `O=C(O)[C@@H](NS(=O)(=O)c1ccc([N+](=O)[O-])cc1)c1ccccc1`
Response: inactive

Query: Which outcome was entered for the compound CCOc1cn(C2CC(O)C(CO)O2)c(=O)[nH]c1=O (configuration not stated) in this test?
Response: inactive

Query: Please indicate how the test categorized `C[C@H](NC(=O)n1c2ccccc2c2ccccc21)C(=O)O` .
Response: inactive

Query: Which outcome was assigned to COc1ccc(/C=C2\CCC(CNc3ccc(Br)cc3)C2=O)cc1 (configuration not stated) in this test?
Response: inactive

Query: Given `c1ccc(C2(c3cc4ccccc4[nH]3)OCCO2)cc1` , state the outcome it received in this test.
Response: inactive

Others:
Query: Hello, I am checking results. What call was entered for `C[S+](C)C1(c2ccccc2)C(=O)c2ccccc2C1=O` ?
Response: inactive

Query: State the result this test recorded for `O=S(O)CCCSSc1ccccc1` .
Response: inactive

Query: Dear all, I need the recorded test outcome for CC(=O)OCC1OC(O[C@@H]2c3c(O)c4c(c(O)c3C3=C(NN(c5ccc([N+](=O)[O-])cc5[N+](=O)[O-])[Se]3=O)[C@@]2(C)O)C(=O)c2ccccc2C4=O)C(OC(C)=O)C(OC(C)=O)C1OC(C)=O (some centres not stated) , thank you.
Response: active

Query: Call for entry C1CC2CN(CCCN3CCOCC3)C(C1)O2 (configuration not stated) :
Response: inactive

Query: Returns: the outcome recorded for `C=CCN(c1cc(OCc2ccccc2)c2[nH]cc(C)c2c1)S(C)(=O)=O` in this assay.
Response: inactive

Query: Hi, do you know how CC(=O)OCC1OC(n2cc(F)c(=O)[nH]c2=O)C(NC(=O)N(CCCl)N=O)C(OC(C)=O)C1OC(C)=O (configuration not stated) came out in this test?
Response: inactive

###

# Tested on: NCI-H23
# PROCEDURE_DETAILS: NCI tumour cell line growth inhibition, 48 h
Active and inactive are the calls of the source. Cut-off read from the data, not from the text of the source: active = GI50 up to about 1.1 µM and inactive = higher.
READOUT_LABEL: GI50

Examples with their reported GI50 follow.
Query: Request - read-out GI50 | tested on NCI-H23 | molecule CC(C)N(C(=O)C12C3C4C1C1C2C3C41C(=O)O)C(C)C (stereo unspecified)
Response: > 100 µM (inactive)

Query: Which measured GI50 belongs to `COc1ccc(Nc2nc3cc(C(F)(F)F)ccc3nc2C(=O)O)cc1` , tested on NCI-H23?
Response: 14.4 µM (inactive)

Query: Lookup: GI50 / NCI-H23 / `O=C(Nc1ccccc1F)c1c(O)nc2sccn2c1=O`
Response: > 10 µM (inactive)

Query: Tell me reported GI50 for COc1ccc2nccc(C3OC(=O)N4CCC(=O)CC34)c2c1 (stereo unspecified) , tested with NCI-H23.
Response: > 100 µM (inactive)

Query: What value of GI50 on NCI-H23 does `CC(C)(C)C(=O)CC(=O)C(F)(F)C(F)(F)C(F)(F)F` have?
Response: 12.6 µM (inactive)

Query: Lab note: need GI50 with NCI-H23 for entry COc1ccccc1-c1csc(CCC(N)C(=O)O)n1 (stereo unspecified) , please look it up.
Response: > 100 µM (inactive)

Query: Form field: GI50 recorded for NC(CCP(=O)(O)CCC1C=CC=CC1)C(=O)O (stereo unspecified) with NCI-H23 (enter value)
Response: > 100 µM (inactive)

Query: Notebook: pull reported GI50 for NCI-H23, entry `COc1cccc(-c2nnc3c(-c4ccccc4)nc4ccccc4n23)c1`
Response: 30.1 µM (inactive)

Below is a list of molecules. For each, state its recorded GI50.
1. O=c1c2cc(S(=O)(=O)O)ccc2nc(COc2ccc(Oc3ccc(Cl)cc3Cl)cc2)n1-c1ccc(Oc2ccc(Cl)cc2)cc1Cl
2. Cc1cc(Cc2cc(C)cc(C(C)(C)C)c2O)c(O)c(Cc2cc(C)cc(C(C)(C)C)c2O)c1
3. CCCN(CCC)C(=O)c1c(Cl)c2cccnc2n2c(C)cnc12

Response:
21.7 µM (inactive)
1.66 µM (inactive)
90.2 µM (inactive)

###

# System: SK-OV-3
# PROCEDURE_DETAILS: NCI tumour cell line growth inhibition, 48 h
Active and inactive are the calls of the source. Rule as the data show it: active = GI50 up to about 1.1 µM and inactive = higher.
Classes to choose from: 1 (yes) (active), 0 (no) (inactive)

Worked examples, 5 molecules total:
Query: What did the test return for Cc1nn(C(=O)Cc2ccccc2)c2c1C(c1ccccc1[N+](=O)[O-])SC(=N)N2 (centres undefined) ?
Response: 0 (no)

Query: I'd appreciate the recorded outcome for `CC1=Nc2ccccc2OC(C)=C1/N=N/c1ccc2[nH]c(C)nc2c1` from this test.
Response: 0 (no)

Query: I'd appreciate the recorded outcome for O=C1/C=C(/c2ccc(O)cc2)[C@@H](OC2OC(CO)C(O)C(O)C2O)Cc2ccc(O)cc2O1.O=C1/C=C(/c2ccc(O)cc2)[C@H](O)Cc2ccc(O[C@@H]3OC(CO)C(O)C(O)C3O)cc2O1 (some centres undefined) from this test.
Response: 0 (no)

Query: Fill in: this test's call for COc1ccc2c(c1OC)CN1CCc3cc4c(cc3C1C2)OCO4 (centres undefined) [TETRAHYDROBERBERINE] is ___
Response: 0 (no)

Query: I would be grateful if you could indicate the recorded call for `CCCCNc1c(CN)cnc2cc(Cl)ccc12` .
Response: 0 (no)

Others:
Query: Which outcome did this test record for the molecule CC#CC#C/C=C1/O[C@]2(CCC(OC(C)=O)CO2)[C@@H]2O[C@H]12 (some centres undefined) ?
Response: 0 (no)

Query: What did the test return for `c1ccc2c(c1)OCCc1cn[nH]c1-2` ?
Response: 0 (no)

Query: Recorded test call requested for COC(=O)C12OCC34C(CC5C(C)=CC(=O)C(O)C5(C)C3C(O)C1O)OC(=O)C(OC(=O)CC(C)C)C24 (centres undefined)
Response: 1 (yes)

Query: For `CC(=O)Nc1ccccc1SCCSSCCSc1ccccc1NC(C)=O` , what call appears in the results of this test?
Response: 0 (no)

###

# Test system: OVCAR-4
# PROCEDURE_DETAILS: NCI tumour cell line growth inhibition, 48 h
Active and inactive are the calls of the source. Rule as the data show it: active = GI50 up to about 1.1 µM and inactive = higher.
READOUT_LABEL: GI50

For orientation, consider the following solved cases.
Query: Which GI50 is reported for this compound? `O=C1CCCC(=O)N1n1c(Cc2ccc(Cl)cc2)n[nH]c1=O`
Response: > 100 µM (inactive)

Query: Which GI50 is reported for this compound? `Cc1nnc(Nc2ccccc2)o1`
Response: > 100 µM (inactive)

Query: Which GI50 value is on record for `O=C(/C=C\c1ccc(Cl)c(Cl)c1)c1ccc(Cl)cc1Cl` ?
Response: 24.4 µM (inactive)

Query: Entry CC(=O)SCCC(NC(=S)Nc1ccccc1)P(=O)(Oc1ccccc1)Oc1ccccc1 (stereo unspecified) : reported GI50 = ?
Response: > 100 µM (inactive)

Okay, here is my list. What is GI50 for each of these?
1. CCCc1cn2c(/C=N/NC(=N)N)c(-c3cccc([N+](=O)[O-])c3)nc2s1
2. O=C(C(=O)c1ccc(Cc2ccc(C(=O)C(=O)c3ccccc3)cc2)cc1)c1ccccc1

Response:
1. 1.47 µM (inactive)
2. > 100 µM (inactive)

Quick request: GI50 for each listed item, please.
1. C=C(CN(C)C)C(=O)c1ccccc1
2. CC(C)(C)C(=O)CC(=O)C(F)(F)C(F)(F)C(F)(F)F

Response:
1: 11.4 µM (inactive); 2: 13.2 µM (inactive)

List reported GI50 for each of these compounds:
1. CSc1nc(CO)c(CO)n1C
2. O=S(=O)(NC(c1ccccc1)(c1cc2ccccc2[nH]1)c1cc2ccccc2n1S(=O)(=O)c1ccccc1)c1ccccc1 (stereo unspecified)

Response:
1. > 100 µM (inactive)
2. > 100 µM (inactive)

Query: For the compound `CCOC(=O)c1ccc(NCC#CCN2CCOCC2)cc1` , what GI50 is on record?
Response: > 100 µM (inactive)

###

# Tested on: CCRF-CEM
# PROCEDURE_DETAILS: NCI tumour cell line growth inhibition, 48 h
Calls of active or inactive are those of the source. No stated cut-off is given here; in the data, active = GI50 up to about 1.1 µM and inactive = higher.
Your answer must be one of the following: active, inactive

Record excerpt, results attached:
Query: Dear colleague, could you share the recorded outcome for `COc1ccccc1NS(=O)(=O)c1ccc2ncn(NS(=O)(=O)c3ccc(Cl)cc3)c(=O)c2c1` when you have a moment?
Response: inactive

Query: Dear colleague, could you share the recorded outcome for `CC(C)(C)N1Cc2ccccc2/C(=C/Sc2ccccc2)C1=O` when you have a moment?
Response: inactive

Query: Status in this test for COc1cc(C2C(Cl)C(=O)N2NC(=O)c2ccc(N)cc2)cc(Br)c1O (stereo unspecified) ?
Response: inactive

New cases:
Query: Write down the call the test reported for this compound. Item: `COc1ccc(-n2cnc3c(N)nc(N)nc32)cc1`
Response: inactive

Query: Recorded test call requested for `CCN1CSC(=S)N(CC)C1`
Response: inactive

Query: Could you please tell me the result logged for C[N+](C)(C)CC1CCCC(C[N+](C)(C)C)C1=O (stereo unspecified) in this assay?
Response: active

The measured values listed here are drawn from ChEMBL document CHEMBL1201862.
